Where do the numbers come from? From PubChem BioAssay (NCI).

# Test system: SK-MEL-5 melanoma
# ASSAY SUMMARY: NCI-60 one-dose screen, 48 h
# APPLIED CONDITIONS: 10 µM unless noted
# Description: Growth inhibition of the SK-MEL-5 human tumor cell line is measured as a screen for anti-cancer activity. Cells are grown in 96 well plates and exposed to the test compound for 48 hours. Compounds are tested at a single concentration, which is 10^-5 M for most compounds. The reported endpoint is percent growth (GI% or GIPRCNT), where numbers from 0 - 100% represent growth inhibition, and numbers from -100% - 0 represent cell death. For example, a value of 40 represents 60% growth inhibition. […]
This is part of a sample that, as a whole, favours compounds with a hit. Of some 83,000 tested, about 20% had one in any assay. Calls of active or inactive are those of the source. How the source made its calls: active means growth percent below 10; inactive means the rest.
Give your call using only these classes: t = active, f = inactive

c1ccc(Nc2ccccn2)cc1 = f
C=C(C)[C@@H]1CC[C@]2(COC(=O)c3ccccc3C(=O)O)CC[C@]3(C)[C@H](CC[C@@H]4[C@@]5(C)CCCNC(C)(C)[C@@H]5CC[C@]43C)[C@@H]12 = f

## Task Hey, what did the test say about O=C(Nc1cccc(Cn2c(=O)[nH]c3ccc(Oc4ncccn4)cc3c2=O)c1)c1ccc(Cl)cc1 ?
## Result f

## Task Hey, what did the test say about [2H]c1nc(=Nc2cc(NC(=O)C=C)c(N(C)CCN(C)C)cc2OC)[nH]c(-c2cn(C([2H])([2H])[2H])c3ccccc23)c1[2H] ?
## Result f

## Task Hey, what did the test say about CCCCCCCCCCCCCCCCNC(=O)Nc1ccc(C)c(NC(=O)NCCCCCCCCCCCCCCCC)c1 ?
## Result f

## Task Hey, what did the test say about O=C(CCC(=O)N(CCO)CCO)N(CCO)CCO ?
## Result f
